Recorded measurements of normalized growth, one per entry
Assay: chemical genetic growth profiling, strain panel (AID 1159580);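 further: tested at 20 µM; growth read once vehicle control cultures reached saturation at 30 °C; 1 = growth at the plate median or of vehicle wells; lower values mean less growth of the strain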
Conditions: S. cerevisiae deletion strains, growth OD, locus YMR231W, strain pep5, stronger effect = lower value
About 2,000 (36%) of roughly 5,500 compounds were called active. Inconclusive results (about 18%) are left out. This is one part of the list.

[
  {
    "COMPOUND": "C[C@]12CCC3c4ccc(O)cc4CCC3C1C[C@@H](O)[C@@H]2O (some centres undefined)",
    "normalized growth": "1.02 (inactive)"
  },
  {
    "COMPOUND": "CCCCCCC(C)OC(=O)COc1ccc(Cl)cc1Cl (centres undefined)",
    "normalized growth": "0.993 (inactive)"
  },
  {
    "COMPOUND": "CCOCN(C(=O)CCl)c1c(C)cccc1CC",
    "normalized growth": "0.981 (inactive)"
  },
  {
    "COMPOUND": "CCN[C@@H]1C[C@H](N)[C@@H](O[C@H]2OC(CN)=CC[C@H]2N)[C@H](O)[C@H]1OC1OC[C@](C)(O)[C@H](NC)[C@H]1O (some centres undefined)",
    "normalized growth": "1 (inactive)"
  }
]

---

Experiment: chemical genetic growth profiling, strain panel (AID 1159580);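 further: tested at 20 µM; growth read once vehicle control cultures reached saturation at 30 °C; 1 = growth at the plate median or of vehicle wells; lower values mean less growth of the strain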
Conditions: S. cerevisiae deletion strains, growth OD, locus YNL307C, strain MCK1, stronger effect = lower value
Screen size: about 5,500 compounds; about 2,000 (36%) were called active. Another 18% or so got no clear call; they are omitted. Some of the results follow.
PROPERTY_LABEL: normalized growth

[
  {
    "COMPOUND": "CC(CC(O)C1OC1(C)C)[C@@H]1CCC2(C)C3=CCC4C(C)(C)C(=O)CCC4(C)C3CC[C@@]12C (stereo not given in full)",
    "VAL": "1.03 (inactive)"
  },
  {
    "COMPOUND": "COc1c(C(C)C)oc2cc3oc(=O)ccc3cc12",
    "VAL": "0.51 (active)"
  },
  {
    "COMPOUND": "COc1ccc2c(c1)CCC1C2CC[C@@]2(C)C1CC[C@@H]2O (stereo not given in full)",
    "VAL": "0.266 (active)"
  },
  {
    "COMPOUND": "COC(=O)C1OC(=O)C2OC23C1(C)CCC1C2(C)C(OC(C)=O)CC(OC(C)=O)C(C)(C)C2CC(=O)C13C (stereo not given)",
    "VAL": "0.988 (inactive)"
  },
  {
    "COMPOUND": "CC(C1OC(C)(C)C(O)C1O)[C@@H]1CC[C@]2(C)C3=CCC4C(C)(C)C(=O)CC[C@]4(C)C3CC[C@@]12C (stereo not given in full)",
    "VAL": "0.942 (inactive)"
  }
]

---

normalized growth values for the compounds below.
Test: chemical genetic growth profiling, strain panel (AID 1159580);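 further: tested at 20 µM; growth read once vehicle control cultures reached saturation at 30 °C; 1 = growth at the plate median or of vehicle wells; lower values mean less growth of the strain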
Settings: S. cerevisiae deletion strains, growth OD, locus YKR026C, strain gcn3, stronger effect = lower value
Out of some 5,500 compounds screened, about 2,000 (36%) were called active. Another 18% or so got no clear call; they are omitted. This is one part of the list.
PROPERTY_LABEL: normalized growth

[
  {
    "COMPOUND": "COc1ccc2c(c1)CCC1C2CC[C@@]2(C)C1CC[C@@H]2O (stereo partly drawn)",
    "PROPERTY_LABEL": "normalized growth",
    "VAL": 0.969
  },
  {
    "COMPOUND": "O=c1ccc2cc(OC3OC(CO)C(O)C(O)C3O)c(O)cc2o1 (stereo not drawn)",
    "PROPERTY_LABEL": "normalized growth",
    "VAL": 1
  },
  {
    "COMPOUND": "COC1=CC(=O)C(C(=O)c2ccccc2)=CC1=O",
    "PROPERTY_LABEL": "normalized growth",
    "VAL": 0.993
  },
  {
    "COMPOUND": "CC/C(=C(/CC)c1ccc(O)cc1)c1ccc(O)cc1",
    "PROPERTY_LABEL": "normalized growth",
    "VAL": 1.02
  },
  {
    "COMPOUND": "CCC(N)C(O)c1ccc(O)c(O)c1 (stereo not drawn)",
    "PROPERTY_LABEL": "normalized growth",
    "VAL": 0.973
  },
  {
    "COMPOUND": "C=C(C)[C@H]1COc2cc3oc(=O)ccc3cc2O1",
    "PROPERTY_LABEL": "normalized growth",
    "VAL": 0.979
  },
  {
    "COMPOUND": "CC(C)(C)NCC(O)c1cc(Cl)c(N)c(Cl)c1 (stereo not drawn)",
    "PROPERTY_LABEL": "normalized growth",
    "VAL": 0.999
  },
  {
    "COMPOUND": "CC(CC(O)C1OC1(C)C)[C@@H]1CCC2(C)C3=CCC4C(C)(C)C(=O)CCC4(C)C3CC[C@@]12C (stereo partly drawn)",
    "PROPERTY_LABEL": "normalized growth",
    "VAL": 1.01
  },
  {
    "COMPOUND": "CC(C)(C)NCC(O)c1cc(O)cc(O)c1 (stereo not drawn)",
    "PROPERTY_LABEL": "normalized growth",
    "VAL": 0.983
  },
  {
    "COMPOUND": "CCCCCc1c2c(cc(O)c1C(=O)O)OC(=O)c1c(cc(OC)cc1C(=O)CCCC)O2",
    "PROPERTY_LABEL": "normalized growth",
    "VAL": 0.998
  },
  {
    "COMPOUND": "CCCC(C)(COC(N)=O)COC(=O)NC(C)C (stereo not drawn)",
    "PROPERTY_LABEL": "normalized growth",
    "VAL": 0.989
  },
  {
    "COMPOUND": "COc1ccc2c(c1)CCC1C2CCC2(C)C1C[C@@H](O)C2O (stereo partly drawn)",
    "PROPERTY_LABEL": "normalized growth",
    "VAL": 0.994
  },
  {
    "COMPOUND": "O=C(O[C@@H]1Cc2c(O)cc(O)cc2O[C@@H]1c1cc(O)c(=O)c2c(O)c(O)cc([C@H]3Oc4cc(O)cc(O)c4C[C@H]3O)c2c1)c1cc(O)c(O)c(O)c1",
    "PROPERTY_LABEL": "normalized growth",
    "VAL": 0.988
  }
]
